# Assay Procedure: total protein half-life in vivo (active degradation + dilution); higher = more stable protein
# Assay Setup: E. coli NCM3722 delta-lon; growth: N-lim chemostat; doubling time 6 h
The following sequences are shown together with reported total protein half-life in vivo values.
Express it in h; write the number only.

[
  {
    "Record Sequence": "MRYPVDVYTGKIQAYPEGKPSAIAKIQVDGELMLTELGLEGDEQAEKKVHGGPDRALCHYPREHYLYWAREFPEQAELFVAPAFGENLSTDGLTESNVYMGDIFRWGEALIQVSQPRSPCYKLNYHFDISDIAQLMQNTGKVGWLYSVIAPGKVSADAPLELVSRVSDVTVQEAAAIAWHMPFDDDQYHRLLSAAGLSKSWTRTMQKRRLSGKIEDFSRRLWGK",
    "Property Name": "total protein half-life in vivo",
    "Meas Value": 5.77
  },
  {
    "Record Sequence": "MSEALLNAGRQTLMLELQEASRLPERLGDDFVRAANIILHCEGKVVVSGIGKSGHIGKKIAATLASTGTPAFFVHPAEALHGDLGMIESRDVMLFISYSGGAKELDLIIPRLEDKSIALLAMTGKPTSPLGLAAKAVLDISVEREACPMHLAPTSSTVNTLMMGDALAMAVMQARGFNEEDFARSHPAGALGARLLNKVHHLMRRDDAIPQVALTASVMDAMLELSRTGLGLVAVCDAQQQVQGVFTDGDLRRWLVGGGALTTPVNEAMTVGGTTLQSQSRAIDAKEILMKRKITAAPVVDENGKLTGAINLQDFYQAGII",
    "Property Name": "total protein half-life in vivo",
    "Meas Value": 4.85
  },
  {
    "Record Sequence": "MAMYQNMLVVIDPNQDDQPALRRAVYLHQRIGGKIKAFLPIYDFSYEMTTLLSPDERTAMRQGVISQRTAWIHEQAKYYLNAGVPIEIKVVWHNRPFEAIIQEVISGGHDLVLKMAHQHDRLEAVIFTPTDWHLLRKCPSPVWMVKDQPWPEGGKALVAVNLASEEPYHNALNEKLVKETIELAEQVNHTEVHLVGAYPVTPINIAIELPEFDPSVYNDAIRGQHLLAMKALRQKFGINENMTHVEKGLPEEVIPDLAEHLQAGIVVLGTVGRTGISAAFLGNTAEQVIDHLRCDLLVIKPDQYQTPVELDDEEDD [P0AAC0]",
    "Property Name": "total protein half-life in vivo",
    "Meas Value": 5.47
  },
  {
    "Record Sequence": "MSQVSTEFIPTRIAILTVSNRRGEEDDTSGHYLRDSAQEAGHHVVDKAIVKENRYAIRAQVSAWIASDDVQVVLITGGTGLTEGDQAPEALLPLFDREVEGFGEVFRMLSFEEIGTSTLQSRAVAGVANKTLIFAMPGSTKACRTAWENIIAPQLDARTRPCNFHPHLKK [P0AEZ9]",
    "Property Name": "total protein half-life in vivo",
    "Meas Value": 5.08
  },
  {
    "Record Sequence": "MQFNIPTLLTLFRVILIPFFVLVFYLPVTWSPFAAALIFCVAAVTDWFDGFLARRWNQSTRFGAFLDPVADKVLVAIAMVLVTEHYHSWWVTLPAATMIAREIIISALREWMAELGKRSSVAVSWIGKVKTTAQMVALAWLLWRPNIWVEYAGIALFFVAAVLTLWSMLQYLSAARADLLDQ [P0ABF8]",
    "Property Name": "total protein half-life in vivo",
    "Meas Value": 5.76
  }
]

Can you share its total protein half-life in vivo? I mean this sequence: MQENYKILVVDDDMRLRALLERYLTEQGFQVRSVANAEQMDRLLTRESFHLMVLDLMLPGEDGLSICRRLRSQSNPMPIIMVTAKGEEVDRIVGLEIGADDYIPKPFNPRELLARIRAVLRRQANELPGAPSQEEAVIAFGKFKLNLGTREMFREDEPMPLTSGEFAVLKALVSHPREPLSRDKLMNLARGREYSAMERSIDVQISRLRRMVEEDPAHPRYIQTVWGLGYVFVPDGSKA [P0AA16]
6.35

Fill in the blank: the reported total protein half-life in vivo of MKCKRLNEVIELLQPAWQKEPDLNLLQFLQKLAKESGFDGELADLTDDILIYHLKMRDSAKDAVIPGLQKDYEEDFKTALLRARGVIKE [P0ADP9] is ____.
3.98
